Target: D(2) dopamine receptor (Homo sapiens)
Sequence (P14416 whole entry): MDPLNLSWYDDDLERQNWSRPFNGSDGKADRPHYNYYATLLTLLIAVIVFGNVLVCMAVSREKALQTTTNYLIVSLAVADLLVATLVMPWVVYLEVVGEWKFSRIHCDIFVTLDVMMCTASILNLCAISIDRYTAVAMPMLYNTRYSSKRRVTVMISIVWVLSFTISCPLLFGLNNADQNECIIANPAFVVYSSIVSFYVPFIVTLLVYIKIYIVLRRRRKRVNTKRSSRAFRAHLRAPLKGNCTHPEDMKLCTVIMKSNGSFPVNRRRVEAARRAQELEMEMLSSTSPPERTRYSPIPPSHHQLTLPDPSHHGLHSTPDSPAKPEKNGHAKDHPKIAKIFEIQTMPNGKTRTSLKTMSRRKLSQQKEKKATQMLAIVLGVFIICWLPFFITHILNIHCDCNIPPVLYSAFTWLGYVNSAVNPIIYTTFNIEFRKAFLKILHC
Measured Metric: pKi
Bear in mind: pKi is minus log10 of a mol/L concentration; give just that figure.

Below, each entry is followed by its recorded pKi result.
{"Cpd Smiles": "CCc1c(C)c2n(c1C)[B-](F)(F)[N+]1=C3C=CC=C(NCCCCN4CCN(c5ccccc5OC)CC4)N3[B-](F)(F)[N+]1=C2", "pKi": 6.51}
{"Cpd Smiles": "CCc1c(C)c2n(c1C)[B-](F)(F)[N+]1=C3C=CC=C(NCCCCN4CCN(c5cccc(Cl)c5Cl)CC4)N3[B-](F)(F)[N+]1=C2", "pKi": 6.30}
{"Cpd Smiles": "COc1ccccc1N1CCN(CCCCNC2=CC=CC3=[N+]4[N+](=Cc5cc6ccccc6n5[B-]4(F)F)[B-](F)(F)N23)CC1", "pKi": 6.74}

What value of measured pKi is listed for Cc1cc(C)n2c1C=[N+]1[N+](=C3C=CC=C(NCCCCN4CCN(c5cccc(Cl)c5Cl)CC4)N3[B-]1(F)F)[B-]2(F)F ?
6.48

Origin of measurements: ChEMBL document CHEMBL5131451
